- ASSAY TARGET: LNX1_1, Q8TBB1
- Sequence (Q8TBB1 261-371): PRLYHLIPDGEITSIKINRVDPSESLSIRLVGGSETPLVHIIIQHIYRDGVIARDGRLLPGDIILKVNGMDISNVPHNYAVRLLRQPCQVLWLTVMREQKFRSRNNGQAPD
- RUN DESCRIPTION: holdup assay
- Set-up: key: below the threshold = too weak to quantify, mostly under pKd 3.1 to 4
- CONDITION NOTES: plain residues with an end cap or a label only (N-terminal biotin on a linker: ado-ado)
READOUT NAME: pKd

Use the examples below as a reference point.
- BINDER: "REEPDHSTEV [CCRL2, O00421]"
  REPORTED MEASUREMENT: 4.09
- BINDER: "TRKRSGEAAV [PFKM, P08237]"
  REPORTED MEASUREMENT: "below the threshold"
- BINDER: "QSGLYESEEL [MYOT, Q9UBF9]"
  REPORTED MEASUREMENT: "below the threshold"
- BINDER: "GEDRSPPTAL [MKNK1, Q9BUB5]"
  REPORTED MEASUREMENT: "below the threshold"
- BINDER: "RFQQRMQTHV [KIRREL1, Q96J84]"
  REPORTED MEASUREMENT: "below the threshold"

q: Please report the recorded pKd for STKRKLASAV [NCF1, P14598] .
a: below the threshold

# credit: paper PMC9482650
